assay_setup: SD rat plasma, 37° C., 20 μM
Bridge positions count the residues as written; N and C are the ends. Square brackets hold non-standard residues; d marks the D form. Peptide text beside a SMILES is read from it. Trp(7-Me) = Cc1cccc2c(C[C@H](N)C(=O)O)c[nH]c12; 2Nal = N[C@@H](Cc1ccc2ccccc2c1)C(=O)O; AEF = NCCOc1ccc(C[C@H](N)C(=O)O)cc1; Cit = NC(=O)NCCC[C@H](N)C(=O)O; Pen = CC(C)(S)[C@H](N)C(=O)O; αMeK = C[C@](N)(CCCCN)C(=O)O; Aib = CC(C)(N)C(=O)O; βAla = NCCC(=O)O
Listed here are compounds together with their documented t½: Rat Plasma EDTA.

CC(=O)NCCCC[C@H](NC(=O)[C@](C)(CCCCN)NC(=O)[C@H](Cc1ccc2ccccc2c1)NC(=O)[C@H](Cc1ccc(OCCN)cc1)NC(=O)[C@H]1NC(=O)[C@H](CCC(N)=O)NC(=O)[C@H](Cc2c[nH]c3c(C)cccc23)NC(=O)[C@H]([C@@H](C)O)NC(=O)C(C)(C)NC(=O)[C@@H](NC(C)=O)C(C)(C)SSC1(C)C)C(=O)N[C@@H](CC(N)=O)C(=O)NCCC(N)=O [compound 240] (Ac-[Pen][Aib]T[Trp(7-Me)]Q[Pen][AEF][2Nal][αMeK]K(Ac)N[βAla]-NH2; disulfide 1-6) :: 8 h
CC(=O)NCCCC[C@@H]1NC(=O)[C@H](Cc2c[nH]c3c(C)cccc23)NC(=O)[C@H]([C@@H](C)O)NC(=O)[C@H](CC(N)=O)NC(=O)[C@@H](NC(C)=O)C(C)(C)SSC(C)(C)[C@@H](C(=O)N[C@@H](Cc2ccc(OCCN)cc2)C(=O)N[C@@H](Cc2ccc3ccccc3c2)C(=O)N[C@@](C)(CCCCN)C(=O)N[C@@H](CCCCNC(C)=O)C(=O)N[C@@H](CC(N)=O)C(=O)N[C@H](Cc2ccccc2)C(N)=O)NC1=O :: >24 h

Now for the compound whose t½: Rat Plasma EDTA we want.
INPUT: Would you mind telling me what t½: Rat Plasma EDTA value was observed for CC(=O)N[C@@H]1C(=O)N[C@@H](CC(N)=O)C(=O)N[C@@H]([C@@H](C)O)C(=O)N[C@@H](Cc2c[nH]c3c(C)cccc23)C(=O)N[C@@H](CCCNC(N)=O)C(=O)N[C@H](C(=O)N[C@@H](Cc2ccc(OCCN)cc2)C(=O)N[C@@H](Cc2ccc3ccccc3c2)C(=O)N[C@@](C)(CCCCN)C(=O)N[C@@H](CCCNC(N)=O)C(=O)NCCC(=O)NCCC(N)=O)C(C)(C)SSC1(C)C [compound 281] (Ac-[Pen]NT[Trp(7-Me)][Cit][Pen][AEF][2Nal][αMeK][Cit][βAla][βAla]-NH2; disulfide 1-6) ?
OUTPUT: >24 h

----------
protocol_details: in vitro
assay_setup: human, 20% fecal homogenate (supernatant), anaerobic, pH 6.8
Bridge positions count the residues as written; N and C are the ends. Square brackets hold non-standard residues; d marks the D form. Peptide text beside a SMILES is read from it. Trp(7-Me) = Cc1cccc2c(C[C@H](N)C(=O)O)c[nH]c12; 2Nal = N[C@@H](Cc1ccc2ccccc2c1)C(=O)O; AEF = NCCOc1ccc(C[C@H](N)C(=O)O)cc1; Cit = NC(=O)NCCC[C@H](N)C(=O)O; Pen = CC(C)(S)[C@H](N)C(=O)O; αMeK = C[C@](N)(CCCCN)C(=O)O; βAla = NCCC(=O)O
quantity_name: half-life at 20 μM

CC(=O)NCCCC[C@H](NC(=O)[C@](C)(CCCCN)NC(=O)[C@H](Cc1ccc2ccccc2c1)NC(=O)[C@H](Cc1ccc(OCCN)cc1)NC(=O)[C@H]1NC(=O)[C@H](CCCNC(N)=O)NC(=O)[C@H](Cc2c[nH]c3c(C)cccc23)NC(=O)[C@H]([C@@H](C)O)NC(=O)[C@H](CC(N)=O)NC(=O)[C@@H](NC(C)=O)C(C)(C)SSC1(C)C)C(=O)NCCC(=O)NCCC(N)=O [compound 268] (Ac-[Pen]NT[Trp(7-Me)][Cit][Pen][AEF][2Nal][αMeK]K(Ac)[βAla][βAla]-NH2; disulfide 1-6) :: > 24 h

Okay, now this molecule:
INPUT: Look at this molecule and give its reported half-life at 20 μM. CC(=O)NCCCC[C@@H]1NC(=O)[C@H](Cc2c[nH]c3c(C)cccc23)NC(=O)[C@H]([C@@H](C)O)NC(=O)[C@H](CC(N)=O)NC(=O)[C@@H](NC(C)=O)C(C)(C)SSC(C)(C)[C@@H](C(=O)N[C@@H](Cc2ccc(OCCN)cc2)C(=O)N[C@@H](Cc2ccc3ccccc3c2)C(=O)N[C@@](C)(CCCCN)C(=O)N[C@@H](CCCCNC(C)=O)C(=O)N[C@@H](CC(N)=O)C(=O)N[C@H](C(N)=O)C(C)C)NC1=O
OUTPUT: > 24 h

----------
protocol_details: in vitro
assay_setup: both, SD, rat, plasma (EDTA)
Numbered stars: 1 amine (or outer) side, 2 acyl side, 3 side chain; on linkers, the order of the positions; unused ones are H or OH. Bridge positions count the residues as written; N and C are the ends. Square brackets hold non-standard residues; d marks the D form. Peptide text beside a SMILES is read from it. X2 = CCCc1cccc2c(C[C@H](N[*:1])C(=O)[*:2])c[nH]c12; 2Nal = N[C@@H](Cc1ccc2ccccc2c1)C(=O)O; AEF = NCCOc1ccc(C[C@H](N)C(=O)O)cc1; Pen = CC(C)(S)[C@H](N)C(=O)O; αMeK = C[C@](N)(CCCCN)C(=O)O
quantity_name: half-life at 20 μM

INPUT: Name the recorded half-life at 20 μM for CCCc1cccc2c(C[C@@H]3NC(=O)[C@H]([C@@H](C)O)NC(=O)[C@H](CC(N)=O)NC(=O)[C@@H](NC(C)=O)C(C)(C)SSC(C)(C)[C@@H](C(=O)N[C@@H](Cc4ccc(OCCN)cc4)C(=O)N[C@@H](Cc4ccc5ccccc5c4)C(=O)N[C@@](C)(CCCCN)C(=O)N[C@@H](CCCCNC(C)=O)C(=O)N[C@@H](CC(N)=O)C(=O)N[C@H](CC(C)C)C(N)=O)NC(=O)[C@H](CCCCNC(C)=O)NC3=O)c[nH]c12 [compound 285] (Ac-[Pen]NT[X2]K(Ac)[Pen][AEF][2Nal][αMeK]K(Ac)N[dL]-NH2; disulfide 1-6) .
OUTPUT: > 24 h

Ref: patent US20260116921A1
